target: Human BCMA (human) (UniProt Q02223); test: SPR, IgG on chip, huBCMA analyte
pKd: −log10 of the molar value.
Attribute measured: pKd

binder="A02_Rd4_6nM_C19 (antibody, V domains shown, IgG) VH: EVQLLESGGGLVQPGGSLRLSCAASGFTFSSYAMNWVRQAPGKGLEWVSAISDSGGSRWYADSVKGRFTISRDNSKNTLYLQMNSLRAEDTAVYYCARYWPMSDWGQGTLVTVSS VL: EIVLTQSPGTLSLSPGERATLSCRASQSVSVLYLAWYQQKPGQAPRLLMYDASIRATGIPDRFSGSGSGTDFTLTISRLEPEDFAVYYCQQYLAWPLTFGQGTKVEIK" value=10.31
binder="COMBO_Rd4_0.6nM_C29 (antibody, V domains shown, IgG) VH: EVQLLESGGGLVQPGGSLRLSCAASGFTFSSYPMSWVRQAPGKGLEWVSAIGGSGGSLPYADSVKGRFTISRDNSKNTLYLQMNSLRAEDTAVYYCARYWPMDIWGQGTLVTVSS VL: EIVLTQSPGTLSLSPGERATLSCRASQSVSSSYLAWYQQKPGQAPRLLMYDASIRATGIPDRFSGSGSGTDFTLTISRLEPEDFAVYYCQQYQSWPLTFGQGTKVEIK" value=10.72
binder="A02_Rd4_0.6nM_C01 (antibody, V domains shown, IgG; also called P5AC1) VH: EVQLLESGGGLVQPGGSLRLSCAASGFTFSSYAMNWVRQAPGKGLEWVSAILSSGGSTYYADSVKGRFTISRDNSKNTLYLQMNSLRAEDTAVYYCARYWPMDIWGQGTLVTVSS VL: EIVLTQSPGTLSLSPGERATLSCRGGQSVSSSYLAWYQQKPGQAPRLLMYDASIRATGIPDRFSGSGSGTDFTLTISRLEPEDFAVYYCQQYQSWPLTFGQGTKVEIK" value=9.71
